Each recorded value in this set is attributed to ChEMBL document CHEMBL2424579.

targetOfAssay: Protein deacetylase HDAC6 (Homo sapiens)
Sequence (Q9UBN7 whole entry): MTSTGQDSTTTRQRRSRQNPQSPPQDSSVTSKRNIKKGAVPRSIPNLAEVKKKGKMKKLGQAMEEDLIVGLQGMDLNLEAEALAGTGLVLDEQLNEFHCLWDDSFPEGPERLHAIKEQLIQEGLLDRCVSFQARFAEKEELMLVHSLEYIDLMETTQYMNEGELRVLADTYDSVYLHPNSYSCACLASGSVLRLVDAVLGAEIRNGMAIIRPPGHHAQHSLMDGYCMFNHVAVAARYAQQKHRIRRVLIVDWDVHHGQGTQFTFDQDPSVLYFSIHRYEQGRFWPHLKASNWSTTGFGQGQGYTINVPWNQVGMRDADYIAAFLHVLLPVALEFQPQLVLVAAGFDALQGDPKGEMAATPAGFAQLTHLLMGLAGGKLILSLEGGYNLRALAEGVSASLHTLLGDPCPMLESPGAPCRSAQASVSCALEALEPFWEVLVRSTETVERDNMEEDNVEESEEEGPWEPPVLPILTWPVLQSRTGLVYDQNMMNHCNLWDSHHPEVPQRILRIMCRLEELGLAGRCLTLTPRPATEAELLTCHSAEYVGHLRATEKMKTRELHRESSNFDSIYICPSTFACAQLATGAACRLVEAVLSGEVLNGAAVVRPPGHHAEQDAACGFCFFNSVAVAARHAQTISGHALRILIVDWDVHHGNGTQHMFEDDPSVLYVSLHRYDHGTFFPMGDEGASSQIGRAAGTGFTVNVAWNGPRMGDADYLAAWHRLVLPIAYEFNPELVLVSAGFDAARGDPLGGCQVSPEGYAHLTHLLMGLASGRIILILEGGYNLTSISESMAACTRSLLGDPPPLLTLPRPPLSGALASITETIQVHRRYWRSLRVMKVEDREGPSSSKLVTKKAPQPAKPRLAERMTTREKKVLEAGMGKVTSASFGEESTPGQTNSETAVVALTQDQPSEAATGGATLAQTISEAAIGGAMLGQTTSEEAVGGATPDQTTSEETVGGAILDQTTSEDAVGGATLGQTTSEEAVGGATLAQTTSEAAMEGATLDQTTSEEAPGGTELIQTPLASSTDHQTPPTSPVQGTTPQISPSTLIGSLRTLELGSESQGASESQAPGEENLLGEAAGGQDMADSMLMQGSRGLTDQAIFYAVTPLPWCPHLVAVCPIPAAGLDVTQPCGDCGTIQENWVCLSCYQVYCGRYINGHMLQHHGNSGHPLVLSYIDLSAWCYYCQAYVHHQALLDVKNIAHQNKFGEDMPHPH
runDescription: Inhibition of human recombinant HDAC6 expressed in baculovirus/sf9 cells using RHKKAc as substrate
observationType: IC50 (nM)
// units = nM; emit number, no label

• CCc1nc2cc(/C=C/C(=O)NO)ccc2c(=O)n1CCc1ccc(F)cc1 = 43
• CCc1nc2cc(/C=C/C(=O)NO)ccc2c(=O)n1CCc1ccccc1 = 11

Input: I have this compound here, `Cc1nc2cc(/C=C/C(=O)NO)ccc2c(=O)n1CCc1c[nH]c2ccccc12` , and I need its recorded IC50.
Output: 15

Input: Query: IC50; subject: `Cc1nc2c(/C=C/C(=O)NO)cccc2c(=O)n1-c1ccccc1`
Output: 690

Input: Consider the compound `Cc1nc2cc(/C=C/C(=O)NO)ccc2c(=O)n1CCc1ccccc1` and give its measured IC50.
Output: 29

----------
Catalogue of EC50 values
System: PC-12
runDescription: Induction of neurite outgrowth in rat PC12 cells after 5 days
Type: functional, cell-based
conditionsUsed: PC-12, 120 h
The reply should be a number in µM, with the unit left off.

* CCc1nc2cc(/C=C/C(=O)NO)ccc2c(=O)n1CCCc1ccccc1 | 6.6

Input: Form field: EC50 recorded for `CCc1nc2ccc(Cc3ccc(C(=O)NO)cc3)cc2c(=O)n1CCc1ccccc1` with PC-12 (enter value)
Output: 9.4

Input: Quick check: EC50 on PC-12, item `CCc1nc2cc(/C=C/C(=O)NO)ccc2c(=O)n1CCc1ccccc1` ?
Output: 5.3

Input: # value lookup — system PC-12, readout EC50, item `CCc1nc2cc(Cc3ccc(C(=O)NO)cc3)ccc2c(=O)n1CCc1ccccc1`
Output: 9.3

----------
targetOfAssay: Histone deacetylase 2 (Homo sapiens)
Sequence (Q92769 whole entry): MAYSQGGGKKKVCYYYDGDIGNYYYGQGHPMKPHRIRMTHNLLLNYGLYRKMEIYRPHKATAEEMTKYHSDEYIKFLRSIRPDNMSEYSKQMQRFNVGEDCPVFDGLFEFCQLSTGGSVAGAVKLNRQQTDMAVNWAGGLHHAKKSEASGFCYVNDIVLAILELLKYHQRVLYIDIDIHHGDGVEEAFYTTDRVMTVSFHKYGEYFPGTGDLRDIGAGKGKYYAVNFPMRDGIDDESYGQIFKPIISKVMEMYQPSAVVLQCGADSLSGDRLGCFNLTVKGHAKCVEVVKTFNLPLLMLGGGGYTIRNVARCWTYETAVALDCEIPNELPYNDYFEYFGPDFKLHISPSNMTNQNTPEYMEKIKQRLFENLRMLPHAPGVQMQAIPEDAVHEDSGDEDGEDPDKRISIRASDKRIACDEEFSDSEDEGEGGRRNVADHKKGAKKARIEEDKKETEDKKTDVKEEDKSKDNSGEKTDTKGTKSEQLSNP
runDescription: Inhibition of human recombinant HDAC2 expressed in baculovirus/sf9 cells using RHKKAc as substrate
observationType: IC50 (µM)
Give the number; µM is assumed, so skip it.

Record excerpt, results attached:
• Cc1nc2cc(/C=C/C(=O)NO)ccc2c(=O)n1Cc1ccccc1 = 4
• CCc1nc2ccc(Cc3ccc(C(=O)NO)cc3)cc2c(=O)n1CCc1ccccc1 = 3.61
• CCc1nc2cc(/C=C/C(=O)NO)ccc2c(=O)n1CCc1ccc(F)cc1 = 6.88
• CCc1nc2cc(/C=C/C(=O)NO)ccc2c(=O)n1CCc1ccc(OC)cc1 = 4.78
• CCc1nc2cc(F)c(/C=C/C(=O)NO)cc2c(=O)n1CCc1ccccc1 = 5.68

Input: Param readout = IC50; param system = Histone deacetylase 2 (Homo sapiens); param query = `Cc1nc2cc(/C=C/C(=O)NO)ccc2c(=O)n1CCc1c[nH]c2ccccc12` ; response: value
Output: 2.21

Input: Entry `Cc1nc2cc(/C=C/C(=O)NO)ccc2c(=O)n1-c1ccccc1` , system Histone deacetylase 2 (Homo sapiens): what IC50 was measured?
Output: 1.61

Input: Recorded IC50 for `Cc1nc2ccc(/C=C/C(=O)NO)cc2c(=O)n1-c1ccccc1` with Histone deacetylase 2 (Homo sapiens), please?
Output: 7.48

----------
System: PC-12
runDescription: Induction of neurite outgrowth in rat PC12 cells after 5 days
Format: functional, cell-based
conditionsUsed: PC-12, 120 h
pEC50: −log10 of the molar value.
Binary classification by pEC50, with 5 as an inclusive lower bound for Criterion met; all other cases are Criterion not met.

Input: # bool: pEC50 of `CCc1nc2cc(/C=C/C(=O)NO)ccc2c(=O)n1CCc1ccc(F)cc1` >= 5
Output: Criterion not met

Input: Reported pEC50 at or above 5? `Cc1nc2cc(/C=C/C(=O)NO)ccc2c(=O)n1Cc1ccccc1`
Output: Criterion not met

Input: // inclusive: pEC50 at least 5? input: `CCc1nc2c(Cc3ccc(C(=O)NO)cc3)cccc2c(=O)n1CCc1ccccc1`
Output: Criterion met

----------
System: SH-SY5Y
runDescription: Induction of neurite outgrowth in human SH-SY5Y cells after 5 days
Format: functional, cell-based
conditionsUsed: 120 h
Below is a list of entries, each paired with its recorded pEC50 value.
# reply with the number alone; pEC50 is -log10 of concentration in mol/L

- CCc1nc2cc(/C=C/C(=O)NO)ccc2c(=O)n1CCCc1ccccc1: 4.93

Next item in the queue.
Input: Entry `CCc1nc2cc(/C=C/C(=O)NO)ccc2c(=O)n1CCc1ccccc1` has what pEC50?
Output: 4.96

----------
targetOfAssay: Histone deacetylase 2 (Homo sapiens)
runDescription: Inhibition of human recombinant HDAC2 expressed in baculovirus/sf9 cells using RHKKAc as substrate
observationType: IC50 (µM)
All answers are understood in µM, so give the number only.

Below, each entry is followed by its recorded IC50 result.
• O=C(/C=C/c1ccc2c(=O)n(CCc3ccccc3)cnc2c1)NO = 1.22
• Cc1nc2cc(/C=C/C(=O)NO)ccc2c(=O)n1CCc1ccccc1 = 6.45

# evaluate next
Input: Reported IC50 for `CCc1nc2cc(/C=C/C(=O)NO)ccc2c(=O)n1CCc1ccccc1` : what is it?
Output: 4.81

----------
targetOfAssay: Amyloid-beta precursor protein (Homo sapiens, UniProt P05067)
Sequence (P05067 whole entry): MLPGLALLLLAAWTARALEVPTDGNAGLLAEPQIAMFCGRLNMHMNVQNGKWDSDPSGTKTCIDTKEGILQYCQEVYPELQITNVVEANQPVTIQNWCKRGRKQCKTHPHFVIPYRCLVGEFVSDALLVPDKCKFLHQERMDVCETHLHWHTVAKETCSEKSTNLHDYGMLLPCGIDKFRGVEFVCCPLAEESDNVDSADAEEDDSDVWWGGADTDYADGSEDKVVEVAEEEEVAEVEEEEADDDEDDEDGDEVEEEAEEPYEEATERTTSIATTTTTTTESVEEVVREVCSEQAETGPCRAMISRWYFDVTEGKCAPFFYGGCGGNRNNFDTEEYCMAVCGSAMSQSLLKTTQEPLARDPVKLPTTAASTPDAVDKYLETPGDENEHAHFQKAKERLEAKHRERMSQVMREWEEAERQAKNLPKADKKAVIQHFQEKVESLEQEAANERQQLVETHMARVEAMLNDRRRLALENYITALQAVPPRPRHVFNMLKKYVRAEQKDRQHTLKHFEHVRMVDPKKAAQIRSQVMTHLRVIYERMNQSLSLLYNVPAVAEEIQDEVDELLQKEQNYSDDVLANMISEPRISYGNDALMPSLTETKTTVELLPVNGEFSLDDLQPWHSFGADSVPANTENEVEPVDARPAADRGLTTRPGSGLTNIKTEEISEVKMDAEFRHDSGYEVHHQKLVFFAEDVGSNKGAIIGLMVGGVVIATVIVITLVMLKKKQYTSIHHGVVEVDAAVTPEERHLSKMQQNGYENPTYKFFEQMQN
runDescription: Inhibition of amyloid beta aggregation (unknown origin) after 4 hrs by thioflavin S assay in absence of Zn2+
observationType: IC50

These solved cases illustrate the format of a correct answer.
• O=C(/C=C/c1ccc2c(=O)n(CCc3ccccc3)cnc2c1)NO = > 50 µM
• Cc1nc2ccc(/C=C/C(=O)NO)cc2c(=O)n1-c1ccccc1 = > 50 µM
• Cc1nc2cc(/C=C/C(=O)NO)ccc2c(=O)n1Cc1ccccc1 = > 50 µM
• Cc1nc2cccc(/C=C/C(=O)NO)c2c(=O)n1-c1ccccc1 = > 50 µM
• O=C(O)c1cccnc1 = 13.1 µM

Then this compound:
Input: Sample `CCc1nc2cc(/C=C/C(=O)NO)ccc2c(=O)n1CCc1ccccc1` — what was its IC50?
Output: > 50 µM

----------
targetOfAssay: Cytochrome P450 3A4 (Homo sapiens, UniProt P08684)
Sequence (P08684 whole entry): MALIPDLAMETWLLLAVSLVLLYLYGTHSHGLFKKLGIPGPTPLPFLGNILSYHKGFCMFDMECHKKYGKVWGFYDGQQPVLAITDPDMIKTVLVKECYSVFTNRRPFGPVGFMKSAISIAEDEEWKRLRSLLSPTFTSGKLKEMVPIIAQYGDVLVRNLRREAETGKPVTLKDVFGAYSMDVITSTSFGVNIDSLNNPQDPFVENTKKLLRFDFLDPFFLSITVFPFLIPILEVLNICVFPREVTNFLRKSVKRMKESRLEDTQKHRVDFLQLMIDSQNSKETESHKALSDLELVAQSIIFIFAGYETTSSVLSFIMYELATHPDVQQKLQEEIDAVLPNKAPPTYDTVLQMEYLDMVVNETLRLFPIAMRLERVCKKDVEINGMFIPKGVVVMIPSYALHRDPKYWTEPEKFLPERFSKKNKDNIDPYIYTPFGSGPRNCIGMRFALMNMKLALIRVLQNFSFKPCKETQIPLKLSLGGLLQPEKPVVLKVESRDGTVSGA
runDescription: Inhibition of CYP3A4 (unknown origin) using Vivid BOMR as substrate
Assay type: ADME
observationType: pIC50
# pIC50: negative log10 of molar concentration; output just the value

Input: Please give the measured pIC50 for this compound: `Cc1nc2cc(/C=C/C(=O)NO)ccc2c(=O)n1CCc1ccccc1`
Output: 5.19

----------
targetOfAssay: Protein deacetylase HDAC6 (Homo sapiens)
runDescription: Inhibition of human recombinant HDAC6 expressed in baculovirus/sf9 cells using RHKKAc as substrate
// values below are reported IC50
Give the value in nM but do not write nM after it.

Study these solved cases before continuing.
- Cc1nc2ccc(/C=C/C(=O)NO)cc2c(=O)n1-c1ccccc1: 32
- CC(C)c1nc2cc(/C=C/C(=O)NO)ccc2c(=O)n1CCc1ccccc1: 13
- CCc1nc2c(Cc3ccc(C(=O)NO)cc3)cccc2c(=O)n1CCc1ccccc1: 79
- Cc1nc2cc(/C=C/C(=O)NO)ccc2c(=O)n1Cc1ccccc1: 24
- CCc1nc2cc(Cc3ccc(C(=O)NO)cc3)ccc2c(=O)n1CCc1ccccc1: 9

Input: Quick check: IC50 of `CCc1nc2cc(/C=C/C(=O)NO)ccc2c(=O)n1CCCc1ccccc1` ?
Output: 33

Input: Would you mind telling me what IC50 value was observed for `CCc1nc2cc(Cl)c(/C=C/C(=O)NO)cc2c(=O)n1CCc1ccccc1` ?
Output: 747

Input: Which measured IC50 value corresponds to `Cc1nc2cccc(/C=C/C(=O)NO)c2c(=O)n1-c1ccccc1` ?
Output: 1920

Input: Would you mind telling me what IC50 value was observed for `CCc1nc2ccc(Cc3ccc(C(=O)NO)cc3)cc2c(=O)n1CCc1ccccc1` ?
Output: 11

Input: Reported IC50 for `O=C(/C=C/c1ccc2c(=O)n(CCc3ccccc3)cnc2c1)NO` : what is it?
Output: 35

----------
targetOfAssay: Polyamine deacetylase HDAC10 (Homo sapiens, UniProt Q969S8)
Sequence (Q969S8 whole entry): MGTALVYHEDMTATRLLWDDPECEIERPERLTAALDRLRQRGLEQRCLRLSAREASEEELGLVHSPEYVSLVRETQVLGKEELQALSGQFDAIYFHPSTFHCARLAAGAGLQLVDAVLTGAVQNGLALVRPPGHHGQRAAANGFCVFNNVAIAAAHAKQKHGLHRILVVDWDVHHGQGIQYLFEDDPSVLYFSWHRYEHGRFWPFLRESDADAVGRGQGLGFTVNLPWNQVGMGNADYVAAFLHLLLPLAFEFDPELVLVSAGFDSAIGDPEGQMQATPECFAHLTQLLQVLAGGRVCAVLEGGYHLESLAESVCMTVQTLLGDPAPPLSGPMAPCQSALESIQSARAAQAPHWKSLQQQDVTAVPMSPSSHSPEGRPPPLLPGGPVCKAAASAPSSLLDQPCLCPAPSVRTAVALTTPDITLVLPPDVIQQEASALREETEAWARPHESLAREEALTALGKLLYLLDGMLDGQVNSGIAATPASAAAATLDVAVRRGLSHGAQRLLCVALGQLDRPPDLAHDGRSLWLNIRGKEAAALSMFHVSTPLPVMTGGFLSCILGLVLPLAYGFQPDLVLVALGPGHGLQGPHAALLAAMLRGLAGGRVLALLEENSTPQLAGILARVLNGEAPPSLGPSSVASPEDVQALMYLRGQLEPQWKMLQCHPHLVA
runDescription: Inhibition of human recombinant HDAC10 expressed in baculovirus/sf9 cells using RHKKAc as substrate
observationType: IC50 (µM)
I only need the number, in µM, no unit after it.

* Cc1nc2ccc(/C=C/C(=O)NO)cc2c(=O)n1-c1ccccc1 | 5.14
* Cc1nc2c(/C=C/C(=O)NO)cccc2c(=O)n1-c1ccccc1 | 29.8

Input: IC50 for `Cc1nc2cc(/C=C/C(=O)NO)ccc2c(=O)n1-c1ccccc1` ?
Output: 17.5

----------
targetOfAssay: Histone deacetylase 11 (Homo sapiens, UniProt Q96DB2)
Sequence (Q96DB2 whole entry): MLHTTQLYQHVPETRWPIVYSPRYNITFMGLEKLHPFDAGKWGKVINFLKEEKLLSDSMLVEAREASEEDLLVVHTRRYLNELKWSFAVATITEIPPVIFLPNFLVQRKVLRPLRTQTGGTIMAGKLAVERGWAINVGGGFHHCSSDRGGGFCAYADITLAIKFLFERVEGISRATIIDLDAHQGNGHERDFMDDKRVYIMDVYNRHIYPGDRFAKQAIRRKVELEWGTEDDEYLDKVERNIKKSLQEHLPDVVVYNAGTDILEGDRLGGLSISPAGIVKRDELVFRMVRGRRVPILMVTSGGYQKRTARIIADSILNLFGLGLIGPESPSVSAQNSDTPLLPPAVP
runDescription: Inhibition of human recombinant HDAC11 expressed in baculovirus/sf9 cells using RHKKAc as substrate
# key: entry, value: pIC50
API: returns pIC50 as number; meaning -log10 of concentration in mol/L.

Take a look at these entries with their results.
- Cc1nc2cc(/C=C/C(=O)NO)ccc2c(=O)n1Cc1ccccc1: 5.61
- O=C(/C=C/c1ccc2c(=O)n(CCc3ccccc3)cnc2c1)NO: 6.14
- CCc1nc2cc(/C=C/C(=O)NO)c(F)cc2c(=O)n1CCc1ccccc1: 5.43
- Cc1nc2cc(/C=C/C(=O)NO)ccc2c(=O)n1-c1ccccc1: 5.87
- CCc1nc2c(Cc3ccc(C(=O)NO)cc3)cccc2c(=O)n1CCc1ccccc1: 4.43
- CCc1nc2cc(F)c(/C=C/C(=O)NO)cc2c(=O)n1CCc1ccccc1: 5.33

Next compound, pIC50 to be filled in.
Input: Form entry - test system: Histone deacetylase 11 (Homo sapiens, UniProt Q96DB2); read-out: pIC50; compound: `Cc1nc2ccc(/C=C/C(=O)NO)cc2c(=O)n1-c1ccccc1`
Output: 5.28
